Test: qHTS for differential inhibitors of proliferation of Plasmodium falciparum line W2 (AID 1883);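 also: parasites grown with compound for 72 h before lysis and staining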
Conditions: Plasmodium falciparum W2 proliferation inhibition; series mostly up to 28.7 µM
Results filed as inconclusive are left out. Activity calls are given as the source filed them. Calls follow the shape of the dose curve; as a rule, active = well fitted curve in the direction sought with a large enough effect; inconclusive = small, poorly fitted or top-dose-only effect, or another doubt; inactive = no such curve, though single readings can be large or run the other way.
Can you answer with just one of these options? 1 for active, -1 for inactive

Outcome logged for NC(C(=O)N[C@@H]1C(=O)N2C(C(=O)O)=C(Cl)CS[C@H]12)c1ccccc1 (stereo partly specified) in this assay:
-1

Outcome logged for `C[N+](C)(C)CC=O` in this assay:
-1

Outcome logged for `CCCC(=O)NCCc1c2n(c3ccc(OC)cc13)CCCc1ccccc1-2` in this assay:
1

Outcome logged for `COc1ccc(NC(=O)c2ccc(-c3ccc(-c4noc(C)n4)cc3C)cc2)cc1N1CCN(C)CC1` in this assay:
1

Outcome logged for CC(/C=C/c1cccc(Oc2ccc(F)cc2)c1)N(O)C(N)=O (stereo unspecified) in this assay:
1

Outcome logged for `O=C1Nc2ccc(I)cc2/C1=C/c1cc(Br)c(O)c(Br)c1` in this assay:
1

Outcome logged for `N#C/C(=C\c1ccc(O)c(O)c1)C(=O)NCCc1ccccc1` in this assay:
1

Outcome logged for `O=c1[nH]ccc2c(O)cccc12` in this assay:
-1

Outcome logged for `Nc1nc2[nH]c(=O)cnc2c(=O)[nH]1` in this assay:
-1

Outcome logged for `O=c1cc(-c2ccccc2)[nH]c2nc(Cl)ccc12` in this assay:
1

Outcome logged for `C[C@H](NC(=O)/C(C#N)=C/c1ccc(O)c(O)c1)c1ccccc1` in this assay:
1
